- STUDY_SYSTEM: HIV protease (Human immunodeficiency virus type 1 group M subtype B, UniProt P04585)
- Construct: purified HIV protease was incubated with synthetic peptide
- ASSAY_PROCEDURE: HIV-specific protease enzyme test (RP-HPLC analysis of synthetic peptide cleavage)
- EXPERIMENTAL_CONTEXT: purified HIV protease, synthetic peptide imitating a Gag precursor cleavage site; concentration causing 50% inhibition of protease activity
REPORTED_PROPERTY: IC50 (µM)
State just the number; it will be interpreted in µM.

CCOP(=O)(OCC)C1CCCN1C(=O)C[C@@H](O)[C@H](CC1CCCCC1)NC(=O)OC(C)(C)C (some centres unmarked) [Example 28] | 10

Now for the molecule whose IC50 we want.
Could you share which IC50 value was measured for CCOP(=O)(OCC)C1CCCN1C(=O)C[C@H](O)[C@H](CC1CCCCC1)NC(=O)[C@@H](NC(=O)[C@H](Cc1cccc2ccccc12)CS(=O)(=O)C(C)(C)C)C(C)C (some centres unmarked) [Example 14] ? 0.5
